Values were extracted from ChEMBL document CHEMBL5046228.

Test system: NCI-H1975
Test: cells
Assay type: functional, cell-based
Conditions: Homo sapiens, NCI-H1975, 72 h
Assay readout: IC50 (nM)
Hi! Could you send only the number? It should be in nM, unit omitted.

> print(dat)
                           structure.smiles  assay.readout  reported
1  C=CC(=O)Nc1cc(Nc2nccc(Nc3cn(C)c4ccccc34)n2)c(OC)cc1N(C)CCN(C)Cc1ccc(Br)cc1           IC50      29.7
2  C=CC(=O)Nc1cc(Nc2nccc(Nc3cn(C)c4ccccc34)n2)c(OC)cc1N(C)CCN(C)C(=O)c1ccc(Br)cc1           IC50      37.9
3  C=CCCN(C)CCN(C)c1cc(OC)c(Nc2nccc(Nc3cn(C)c4ccccc34)n2)cc1NC(=O)C=C           IC50      2.01
4  C=CC(=O)Nc1cc(Nc2nccc(Nc3cn(C)c4ccccc34)n2)c(OC)cc1N(C)CCN(C)Cc1ccccc1           IC50      4.02

Problem: Indicate the recorded IC50 value for this compound: `C#CCN(C)CCN(C)c1cc(OC)c(Nc2nccc(Nc3cn(C)c4ccccc34)n2)cc1NC(=O)C=C`
Solution: 2.58

Problem: Indicate the recorded IC50 value for this compound: `C=CC(=O)Nc1cc(Nc2nccc(Nc3cn(C)c4ccccc34)n2)c(OC)cc1N(C)CCN(C)CC(=O)OC`
Solution: 8.31

----------
Assay: in vitro
Conditions: human
# selectivity ratio per record follows
# output: bare number, no unit

> print(dat)
                           structure.smiles      assay.readout  reported
1  C=CC(=O)Nc1cc(Nc2nccc(Nc3cn(C)c4ccccc34)n2)c(OC)cc1N(C)CCN(C)CC(=O)OC  selectivity ratio       637

Problem: Indicate the recorded selectivity ratio value for this compound: `C=CC(=O)Nc1cc(Nc2nccc(Nc3cn(C)c4ccccc34)n2)c(OC)cc1N(C)CCN(C)Cc1ccc(Br)cc1`
Solution: 2640

Problem: Indicate the recorded selectivity ratio value for this compound: `C=CCCN(C)CCN(C)c1cc(OC)c(Nc2nccc(Nc3cn(C)c4ccccc34)n2)cc1NC(=O)C=C`
Solution: 881

Problem: Indicate the recorded selectivity ratio value for this compound: `C=CC(=O)Nc1cc(Nc2nccc(Nc3cn(C)c4ccccc34)n2)c(OC)cc1N(C)CCN(C)C(=O)c1ccc(Br)cc1`
Solution: 3370

Problem: Indicate the recorded selectivity ratio value for this compound: `C#CCN(C)CCN(C)c1cc(OC)c(Nc2nccc(Nc3cn(C)c4ccccc34)n2)cc1NC(=O)C=C`
Solution: 27500

----------
Assay: in vitro
Settings: human
Field: label. Allowed values: y (selectivity ratio < 700) or n (selectivity ratio >= 700).

Study these solved cases before continuing.
> print(dat)
                           structure.smiles  category
1  C=CC(=O)Nc1cc(Nc2nccc(Nc3cn(C)c4ccccc34)n2)c(OC)cc1N(C)CCN(C)CC(=O)OC         y
2  C=CC(=O)Nc1cc(Nc2nccc(Nc3cn(C)c4ccccc34)n2)c(OC)cc1N(C)CCN(C)Cc1ccc(Br)cc1         n
3  C#CCN(C)CCN(C)c1cc(OC)c(Nc2nccc(Nc3cn(C)c4ccccc34)n2)cc1NC(=O)C=C         n

Note: attention shifts to another entry.
Problem: Threshold test, selectivity ratio < 700: `C=CC(=O)Nc1cc(Nc2nccc(Nc3cn(C)c4ccccc34)n2)c(OC)cc1N(C)CCN(C)C(=O)c1ccc(Br)cc1`
Solution: n
